The measurements presented in this section are drawn from patent US7691855B2.

This section lists IC50 readings for VEGF Receptor (KDR) (Homo sapiens).
Reply with just the number (in nM).

Take a look at these entries with their results.
{"columns": ["compound", "unitString", "quantitativeResult"],
 "data": [
  ["Cc1ccc(-c2n[nH]cc2-c2ccnc(Nc3cccc(OCC4CCN(C)CC4)c3)n2)cc1 [Example 124]", "nM", 5],
  ["Cc1cccc(-c2n[nH]cc2-c2ccnc(Nc3ccc(N4CCN(C)CC4)cc3)n2)c1 [Example 18]", "nM", 4],
  ["CN1CCN(c2ccc(Nc3nccc(-c4c[nH]nc4-c4ccc(Cl)cc4)n3)cc2)CC1 [Example 1]", "nM", 10],
  ["CCN1CCN(c2ccc(Nc3nccc(-c4c[nH]nc4-c4ccc(C)cc4)n3)cc2)CC1 [Example 109]", "nM", 3]
]}

Consider the additional compound presented here.
Requested read-out: IC50. Entry: CCN1CCN(Cc2ccc(Nc3nccc(-c4c[nH]nc4-c4ccc(C)cc4)n3)cc2)CC1 [Example 101]
4

---

Catalogue of compounds with associated melting point

Look over these answered cases.
{"columns": ["smilesStructure", "melting point"],
 "data": [
  ["COc1cc(Nc2nccc(-c3c[nH]nc3-c3cccc(C)c3C)n2)cc(OC)c1OC", "249 °C"],
  ["CN1CCC(n2ncc(-c3ccnc(Nc4ccc(CN5CCN(C)CC5)cc4)n3)c2-c2ccc(Cl)cc2)CC1", "180 °C"],
  ["CC1(C)CC(NCc2ccc(Nc3nccc(-c4c[nH]nc4-c4ccccc4)n3)cc2)CC(C)(C)N1", "213 °C"]
]}

Fill in the blank: the reported melting point of CN1CCN(c2ccc(Nc3nccc(-c4c[nH]nc4-c4ccc(Cl)cc4)n3)cc2)CC1 is ____.
282 to 284 °C

---

Listing of entries alongside the reported pIC50.
# experimentalTarget: EGF-R (HER-1) (Homo sapiens)
# Construct: using the recombinant intracellular domain of the EGF-receptor [EGF-R ICD
# Sequence (P00533 669-1210 limits assumed): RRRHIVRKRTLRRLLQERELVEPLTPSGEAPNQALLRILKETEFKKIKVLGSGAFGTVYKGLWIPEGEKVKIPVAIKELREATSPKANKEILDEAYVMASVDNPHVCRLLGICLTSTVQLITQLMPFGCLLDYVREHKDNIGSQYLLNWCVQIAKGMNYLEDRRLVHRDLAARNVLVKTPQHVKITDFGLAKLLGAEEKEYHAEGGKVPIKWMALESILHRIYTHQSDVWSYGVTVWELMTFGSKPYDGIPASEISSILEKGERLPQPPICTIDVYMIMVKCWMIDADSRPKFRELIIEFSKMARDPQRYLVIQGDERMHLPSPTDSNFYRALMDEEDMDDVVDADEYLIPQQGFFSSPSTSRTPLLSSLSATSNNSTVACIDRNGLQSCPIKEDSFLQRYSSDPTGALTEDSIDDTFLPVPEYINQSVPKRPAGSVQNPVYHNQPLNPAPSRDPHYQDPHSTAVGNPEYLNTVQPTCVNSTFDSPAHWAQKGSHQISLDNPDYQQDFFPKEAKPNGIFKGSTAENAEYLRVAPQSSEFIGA
# testProtocol: Inhibition of EGF-R (HER-1) tyrosine kinase activity
# settings: recombinant intracellular domain of the EGF-receptor
Field pIC50 (float): negative decimal logarithm of the concentration in molar.

Solved entries (count: 3):
{"columns": ["compound", "pIC50"],
 "data": [
  ["CN1CCN(c2ccc(Nc3nccc(-c4cn(C)nc4-c4ccc(Cl)cc4)n3)cc2)CC1 [Example 91]", 7.74],
  ["CN1CCN(c2ccc(Nc3nccc(-c4c[nH]nc4-c4ccc(Cl)cc4)n3)cc2)CC1 [Example 1]", 7.74],
  ["CCN1CCN(Cc2ccc(Nc3nccc(-c4c[nH]nc4-c4ccc(C)cc4)n3)cc2)CC1 [Example 101]", 7.89]
]}

Next compound, please.
Fill in the recorded pIC50 for this compound, with EGF-R (HER-1) (Homo sapiens) as test system: CN(C)CCOc1ccc(Nc2nccc(-c3c[nH]nc3-c3ccc(Cl)c(Cl)c3)n2)cc1 [Example 21]
7.54

---

Each record here notes measured IC50.
# experimentalTarget: EGF-R (HER-1) (Homo sapiens)
# Construct: using the recombinant intracellular domain of the EGF-receptor [EGF-R ICD
# testProtocol: Inhibition of EGF-R (HER-1) tyrosine kinase activity
# settings: recombinant intracellular domain of the EGF-receptor
# Method: J. Biochem. 207, 265-275 (1992)]. Compared with the control without inhibitor, the compounds of formula I inhibit the enzyme activity by 50% (IC50), for example in a concentration of from 0.0005 to 0.5 μM, especially from 0.001 to 0.1 μM. Inhibition of the tyrosine kinase Activity of EGF-R (HER-1), ErbB-2 (HER-2) and VEGF Receptor (KDR) The inhibition tests are carried out as described above.
Show the value, then the unit it is measured in.

{"columns": ["smilesStructure", "result"],
 "data": [
  ["Clc1ccc(-c2n[nH]cc2-c2ccnc(Nc3ccc(-c4nnn[nH]4)cc3)n2)cc1", "9 nM"]
]}

What does the record list as IC50 for CCN1CCN(c2ccc(Nc3nccc(-c4c[nH]nc4-c4ccc(C)cc4)n3)cc2)CC1 ?
16 nM

Given the entry Cc1cccc(-c2n[nH]cc2-c2ccnc(Nc3ccc(OCCN(C)C)cc3)n2)c1 , report its measured IC50.
27 nM

Quick one: IC50 of CN(C)CCOc1ccc(Nc2nccc(-c3c[nH]nc3-c3ccc(Cl)cc3)n2)cc1 ?
22 nM

Param item = COc1cc(Nc2nccc(-c3c[nH]nc3-c3ccc4c(c3)OCO4)n2)cc(OC)c1OC ; retrieve measured IC50.
28 nM

Dear colleague, I am looking for the recorded IC50 of the following compound: Cc1cccc(-c2n[nH]cc2-c2ccnc(Nc3ccc(N4CCN(C)CC4)cc3)n2)c1
21 nM
